test system: HL-1; assay: relative cell viability (CellTiter-Glo) vs DMSO control (% of DMSO control); higher = more viable cells; settings: oxygen condition: normoxia 72 h; 40 nM
Counter-ions that a name gives are not always drawn.
Lab note: cut-off is 100. Strictly less in relative cell viability is T. Exactly 100 or more is F.

Consider the worked cases shown below.
molecule: O=C(O)Cc1ccccc1Nc1c(Cl)cccc1Cl [Diclofenac Diethylamine]
answerLabel: F

molecule: CS(=O)(=O)CCNCc1ccc(-c2ccc3ncnc(Nc4ccc(OCc5cccc(F)c5)c(Cl)c4)c3c2)o1 [Lapatinib]
answerLabel: T

Request: For this molecule, is relative cell viability lower than 100? COc1cccc2c1C(=O)c1c(O)c3c(c(O)c1C2=O)C[C@@](O)(C(C)=O)C[C@@H]3O[C@H]1C[C@H](N)[C@H](O)[C@H](C)O1 [Daunorubicin HCl]
Response: T

Request: Record COc1ccc([C@@H]2Sc3ccccc3N(CCN(C)C)C(=O)[C@@H]2OC(C)=O)cc1 [Diltiazem HCl] : is its relative cell viability strictly below 100?
Response: F

====

tested on: HL-1; assay: relative cell viability (CellTiter-Glo) vs DMSO control (% of DMSO control); higher = more viable cells; conditions: oxygen condition: hypoxia 48 h (1% O2) + reoxygenation 24 h; 40 nM
// reported relative cell viability for each item listed
Give a plain numeric answer without units written out.

compound: CN(C)CCc1c[nH]c2ccc(Cn3cncn3)cc12 [Rizatriptan Benzoate]
relative cell viability: 103

Request: Sample CC(O)(P(=O)(O)O)P(=O)(O)O [Etidronate] — what was its relative cell viability?
Response: 95.8

Request: Given the entry COc1ccc2[nH]cc(CCNC(C)=O)c2c1 [Melatonin] , report its measured relative cell viability.
Response: 113

====

tested on: HL-1; assay: relative cell viability (CellTiter-Glo) vs DMSO control (% of DMSO control); higher = more viable cells; settings: oxygen condition: hypoxia 48 h (1% O2) + reoxygenation 24 h; 1000 nM
Structures can show the parent of a compound that is named as a salt.
Entries and their measured relative cell viability follow.
The reply should be a number, written without any unit.

compound: NS(=O)(=O)c1cc(Cl)c(Cl)c(S(N)(=O)=O)c1 [Dichlorphenamide]
relative cell viability: 103
//
compound: COc1ccccc1OCC(O)CN1CCN(CC(=O)Nc2c(C)cccc2C)CC1 (stereo not given) [Ranolazine dihydrochloride]
relative cell viability: 86.8
//
compound: O=P(O)(O)C(O)(Cc1cccnc1)P(=O)(O)O [Risedronic acid]
relative cell viability: 96.4

Request: Return reported relative cell viability; argument: CC(=O)/N=c1/sc(S(N)(=O)=O)nn1C [Methazolamide]
Response: 108

Request: Find the recorded relative cell viability belonging to Cc1c(O)c(=O)ccn1C and report it.
Response: 102

Request: GET /values?readout=relative cell viability&item= CCOc1nc2cccc(C(=O)O)c2n1Cc1ccc(-c2ccccc2-c2noc(=O)[nH]2)cc1
Response: 111

Request: What does the record list as relative cell viability for COc1ccc2[nH]cc(CCNC(C)=O)c2c1 ?
Response: 113

Request: So what's the measured relative cell viability for this one? Cc1c(N(C)C)c(=O)n(-c2ccccc2)n1C
Response: 109

Request: For the compound shown here, CN1CCOC(c2ccccc2)c2ccccc2C1 (stereo not given) [Nefopam HCl] , give the reported relative cell viability.
Response: 43.9

Request: Return reported relative cell viability; argument: O=c1[nH]c(=O)n(C2CCCO2)cc1F (stereo not given)
Response: 104

Request: So what's the measured relative cell viability for this one? C[C@H](N[C@@H](CCc1ccccc1)C(=O)O)C(=O)N1CCC[C@H]1C(=O)O [Enalaprilat dihydrate]
Response: 102

Request: For N=C(N)NC(=O)c1nc(Cl)c(N)nc1N [Amiloride hydrochloride dihydrate] , what is its reported relative cell viability?
Response: 107

Request: Form field: reported relative cell viability of c1ccc2c(CC3=NCCN3)cccc2c1 [Naphazoline hydrochloride]
Response: 106

Request: What does the record list as relative cell viability for Nc1nc2[nH]cc(CCc3ccc(C(=O)N[C@@H](CCC(=O)O)C(=O)O)cc3)c2c(=O)[nH]1 ?
Response: 85.8

Request: Which relative cell viability value is on record for O=NN(CCCl)C(=O)NC1CCCCC1 ?
Response: 93.4

Request: Sample CS(=O)(=O)Nc1ccc([N+](=O)[O-])cc1Oc1ccccc1 [Nimesulide] — what was its relative cell viability?
Response: 109

Request: Which relative cell viability is listed for CCOc1nc2cccc(C(=O)OC(C)OC(=O)OC3CCCCC3)c2n1Cc1ccc(-c2ccccc2-c2nn[nH]n2)cc1 (stereo not given) ?
Response: 97.6

Request: For the compound Cc1ccc(N(CC2=NCCN2)c2cccc(O)c2)cc1 [Phentolamine mesilate] , what relative cell viability is on record?
Response: 107
